# System: NCI-H226
# method-description: NCI tumour cell line growth inhibition, 48 h
Active and inactive are the calls of the source. Cut-off read from the data, not from the text of the source: active = GI50 up to about 1.1 µM and inactive = higher.
Each entry below carries its recorded GI50.
recorded-endpoint: GI50

[[record]]
compound = "COCCNC(=O)C1C(=O)C(=O)N(CCOC)C1=O (stereo not given)"
recorded_endpoint = "GI50"
result = "> 100 µM (inactive)"

[[record]]
compound = "CCN(CC)CCn1ncc2ccc3c(c(=O)c4cccnc4n3CCN(CC)CC)c21"
recorded_endpoint = "GI50"
result = "1.7 µM (inactive)"

[[record]]
compound = "COC1(OC)N=C(N)C2(C#N)C(C)CC(=O)N(N(C)C)C12C#N (stereo not given)"
recorded_endpoint = "GI50"
result = "> 100 µM (inactive)"

[[record]]
compound = "O=C(C=C1SCCS1)/C=C\\c1ccc(Cl)cc1"
recorded_endpoint = "GI50"
result = "83.2 µM (inactive)"

[[record]]
compound = "Cc1cc(-c2ccccc2)nc(Nc2nc3ccccc3o2)n1"
recorded_endpoint = "GI50"
result = "> 100 µM (inactive)"

[[record]]
compound = "O=S(=O)(/C=C/C=C/S(=O)(=O)c1ccccc1)c1ccccc1"
recorded_endpoint = "GI50"
result = "7.62 µM (inactive)"

[[record]]
compound = "COc1nc2c(nc(N)n2C2OC(CO)C(O)C(O)C2O)c(=O)[nH]1 (stereo not given)"
recorded_endpoint = "GI50"
result = "> 100 µM (inactive)"

[[record]]
compound = "CCOC(=O)NC1C2CC(=O)C(O2)C1OCc1ccccc1 (stereo not given)"
recorded_endpoint = "GI50"
result = "> 100 µM (inactive)"

[[record]]
compound = "O=c1cc(-c2ccccc2)[nH]c2c(Cl)cccc12"
recorded_endpoint = "GI50"
result = "9.55 µM (inactive)"

[[record]]
compound = "O=C(O)CCCc1ccc(N(CCCl)CCCl)cc1"
recorded_endpoint = "GI50"
result = "95.7 µM (inactive)"

[[record]]
compound = "COc1cc(/N=N\\c2cccc(S(=O)(=O)O)c2)c(C)cc1/N=N\\c1ccc(/C=C/c2ccc(/N=[N+](/[O-])c3ccc(/C=C/c4ccc(/N=N\\c5cc(C)c(/N=N/c6cccc(S(=O)(=O)O)c6)cc5OC)cc4)c(S(=O)(=O)O)c3)cc2S(=O)(=O)O)cc1"
recorded_endpoint = "GI50"
result = "> 100 µM (inactive)"

[[record]]
compound = "COc1ccccc1C(C1=C(O)COC1=O)c1cc2c(cc1OC(C)=O)OCO2 (stereo not given)"
recorded_endpoint = "GI50"
result = "> 100 µM (inactive)"

[[record]]
compound = "Cc1c2cccc-2c(N(C)C)cc2c1[nH]c1ccccc12"
recorded_endpoint = "GI50"
result = "5.81 µM (inactive)"

[[record]]
compound = "O=S(=O)(c1ccccc1)c1ccc(-c2nc(-c3ccc4c(c3)Sc3ccccc3S4)cs2)cc1"
recorded_endpoint = "GI50"
result = "67 µM (inactive)"

[[record]]
compound = "COc1cc([C@@H]2c3cc4c(cc3[C@@H](NCc3ccccc3F)C3COC(=O)[C@@H]32)OCO4)cc(OC)c1O (stereo not given in full)"
recorded_endpoint = "GI50"
result = "2.06 µM (inactive)"

[[record]]
compound = "C=CCOCCCC(=O)C(=[N+]=[N-])C(=O)OC"
recorded_endpoint = "GI50"
result = "> 100 µM (inactive)"

[[record]]
compound = "COc1cc2c(c(OC)c1OC)-c1ccc(OC)c(=O)cc1C(NC(=O)CCCCCNc1ccc(N=[N+]=[N-])cc1[N+](=O)[O-])CC2 (stereo not given)"
recorded_endpoint = "GI50"
result = "< 0.01 µM (active)"

[[record]]
compound = "O=C(O)c1ccccc1Cc1ccco1"
recorded_endpoint = "GI50"
result = "> 100 µM (inactive)"

[[record]]
compound = "COc1cc(C(C#N)NNc2nc(C)cc(O)n2)cc(OC)c1OC (stereo not given)"
recorded_endpoint = "GI50"
result = "> 100 µM (inactive)"

[[record]]
compound = "O=c1[nH]nc(Cc2ccc(Cl)cc2)n1Nc1ccccc1"
recorded_endpoint = "GI50"
result = "> 100 µM (inactive)"

[[record]]
compound = "COc1ccc2nc3cc(Cl)ccc3c(Sc3ccccc3[N+](=O)[O-])c2c1"
recorded_endpoint = "GI50"
result = "17.7 µM (inactive)"

[[record]]
compound = "Cc1nc2sc(CCl)nn2c(=O)c1Cl"
recorded_endpoint = "GI50"
result = "14.9 µM (inactive)"

[[record]]
compound = "CCOC(=O)C(C(=O)c1ccccc1-c1ccccc1C(=O)O)=P(c1ccccc1)(c1ccccc1)c1ccccc1"
recorded_endpoint = "GI50"
result = "24.4 µM (inactive)"

[[record]]
compound = "COc1cc2c(cc1OC)[C@H]1C(COC(=O)c3ccccc3)CS/C(=N/c3ccccc3)N1CC2 (stereo not given in full)"
recorded_endpoint = "GI50"
result = "36.3 µM (inactive)"

[[record]]
compound = "CCN(CC)CCOc1ccc(/C=C(\\C#N)c2ccc(OCCN(CC)CC)cc2)cc1"
recorded_endpoint = "GI50"
result = "39.4 µM (inactive)"

